- System: 786-0 renal
- Assay Explanation: NCI-60 one-dose screen, 48 h (100 = growth as untreated, 0 = no growth, -100 = all killed)
- Experimental Conditions: 10 µM
The panel holds about 83,000 compounds, 20% with a hit somewhere; the sample as a whole holds those more often.
Reported growth by item:
Express the result in % but write the number alone.

                            compound  readout_name  number
0   CC(=O)N(C)c1ccc([N+](=O)[O-])cc1        growth     105
1  CC(=O)c1cc2c(cc1F)C(C)(C)CCC2(C)C        growth     103

Input "Cc1cc(=O)n(-c2ccc(F)cc2)[nH]1" . Output growth: 105
